- target desc: protein-protein interaction between Kras and SOS1 (biotin-tagged human Kras loaded with GDP, His-tagged human SOS1) (Homo sapiens (Human), UniProt P01116, G12D)
- assay text: Protein-protein interaction inhibition between Kras and SOS1 (KrasG12D-SOS PPI) using AlphaScreen;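 note: kras produced in E. coli, Ni-coupled donor beads and streptavidin acceptor beads, excitation 680 nm with emission detected at 520–620 nm via singlet oxygen transfer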
- Assay type: biochemical
- test context: AlphaScreen; biotin-tagged human Kras loaded with GDP, His-tagged human SOS1; read-out: KRAS G12D-SOS PPI IC50
pIC50: −log10 of the molar value. Numbered stars: 1 amine (or outer) side, 2 acyl side, 3 side chain; on linkers, the order of the positions; unused ones are H or OH. Bridge positions count the residues as written; N and C are the ends. Square brackets hold non-standard residues; d marks the D form. Peptide text beside a SMILES is read from it. * marks the point of attachment. hPhe(3-Cl-4-CF3) = N[C@@H](CCc1ccc(C(F)(F)F)c(Cl)c1)C(=O)O; hPhe(3-F,4-CF3) = N[C@@H](CCc1ccc(C(F)(F)F)c(F)c1)C(=O)O; NMePhe(3,4-F2) = CN[C@@H](Cc1ccc(F)c(F)c1)C(=O)O; NMePhe(4-Cl) = CN[C@@H](Cc1ccc(Cl)cc1)C(=O)O; NMePhe(4-Me) = CN[C@@H](Cc1ccc(C)cc1)C(=O)O; NMePhe(2-Cl) = CN[C@@H](Cc1ccccc1Cl)C(=O)O; NMePhe(4-F) = CN[C@@H](Cc1ccc(F)cc1)C(=O)O; NMedβ3hAla = C[C@H](CC(=O)[*:2])N(C)[*:1]; NMeGly(cPent) = CN[C@H](C(=O)O)C1CCCC1; NMe3Pal = CN[C@@H](Cc1cccnc1)C(=O)O; NMeCha = CN[C@@H](CC1CCCCC1)C(=O)O; NMeChg = CN[C@H](C(=O)O)C1CCCCC1; NMeI = CC[C@H](C)[C@H](NC)C(=O)O; X138 = NCCOCCN(CC(=O)[*:2])[*:1]; NMeD = CN[C@@H](CC(=O)O)C(=O)O; NMeL = CN[C@@H](CC(C)C)C(=O)O; NMeV = CN[C@H](C(=O)O)C(C)C; d(β3hA) = C[C@@H](N)CC(=O)O; NMeA = CN[C@@H](C)C(=O)O; NMeAib = CNC(C)(C)C(=O)O; Nle = CCCC[C@H](N)C(=O)O; Piperidide = C1CCN(*)CC1; dNMeA = CN[C@H](C)C(=O)O; Ac5c = NC1(C(=O)O)CCCC1; Aze = O=C(O)[C@@H]1CCN1; Sar = CNCC(=O)O
quantity kind: pIC50

>>> measured_value("CC[C@H](C)[C@@H]1NC(=O)[C@H](C)N(C)C(=O)C[C@@H](C(=O)N2CCCCC2)N(C)C(=O)[C@H](C(C)C)N(C)C(=O)C2(CCCC2)NC(=O)[C@H](Cc2ccc(F)c(F)c2)N(C)C(=O)[C@H](CCc2ccc(C(F)(F)F)c(Cl)c2)NC(=O)CN(C)C(=O)[C@H](CC2CCCCC2)N(C)C(=O)CN(C)C(=O)CN(C)C1=O [Compound 171] ([NMeA]I[Sar][Sar][NMeCha][Sar][hPhe(3-Cl-4-CF3)][NMePhe(3,4-F2)][Ac5c][NMeV][NMeD]-Piperidide; lactam N-11)")
7.85
>>> measured_value("CC[C@H](C)[C@@H]1NC(=O)[C@H](C)N(C)C(=O)C[C@@H](C(=O)N2CCCCC2)N(C)C(=O)[C@H](C(C)C)N(C)C(=O)C2(CCCC2)NC(=O)[C@@H]2CCCN2C(=O)[C@H](CCc2ccc(C(F)(F)F)c(Cl)c2)NC(=O)[C@@H](C)N(C)C(=O)[C@H](Cc2ccc(F)cc2)N(C)C(=O)[C@@H]2CCN2C(=O)[C@H](C)N(C)C1=O [Compound 1816] ([NMeA]I[NMeA][Aze][NMePhe(4-F)][dNMeA][hPhe(3-Cl-4-CF3)]P[Ac5c][NMeV][NMeD]-Piperidide; lactam N-11)")
7.92
>>> measured_value("CC[C@H](C)[C@@H]1NC(=O)[C@H](C)N(C)C(=O)C[C@@H](C(=O)N2CCCCC2)N(C)C(=O)[C@H](C(C)C)N(C)C(=O)C2(CCCC2)NC(=O)[C@H](Cc2ccccc2Cl)N(C)C(=O)[C@H](CCc2ccc(C(F)(F)F)c(Cl)c2)NC(=O)CN(C)C(=O)[C@H](Cc2ccc(C)cc2)N(C)C(=O)CN(C)C(=O)CN(C)C1=O [Compound 2007] ([NMeA]I[Sar][Sar][NMePhe(4-Me)][Sar][hPhe(3-Cl-4-CF3)][NMePhe(2-Cl)][Ac5c][NMeV][NMeD]-Piperidide; lactam N-11)")
6.64
>>> measured_value("CC[C@H](C)[C@@H]1NC(=O)[C@H](CC(C)C)N(C)C(=O)C[C@@H](C(=O)N2CCCCC2)N(C)C(=O)[C@H](C(C)C)N(C)C(=O)C2(CCCC2)NC(=O)[C@H](C)NC(=O)[C@H](CCc2ccc(C(F)(F)F)c(Cl)c2)NC(=O)CN(C)C(=O)[C@H](CC2CCCCC2)N(C)C(=O)CN(C)C(=O)CN(C)C1=O [Compound 156] ([NMeL]I[Sar][Sar][NMeCha][Sar][hPhe(3-Cl-4-CF3)]A[Ac5c][NMeV][NMeD]-Piperidide; lactam N-11)")
9.01
>>> measured_value("CCCC[C@@H]1NC(=O)C(C)(C)N(C)C(=O)[C@H](CC(C)C)NC(=O)[C@H](CCc2ccc(C(F)(F)F)c(F)c2)NC(=O)CN(C)C(=O)[C@H](Cc2ccc(Cl)cc2)N(C)C(=O)CN(C)C(=O)CN(C)C(=O)[C@H]([C@@H](C)CC)NC(=O)[C@H](CC(C)C)N(C)C(=O)C[C@@H](C)N(C)C1=O [Compound 83] (cyclo(I[Sar][Sar][NMePhe(4-Cl)][Sar][hPhe(3-F,4-CF3)]L[NMeAib][Nle][NMedβ3hAla][NMeL]))")
6.96
>>> measured_value("CC[C@H](C)[C@@H]1NC(=O)[C@H](CC(C)C)N(C)C(=O)C[C@@H](C)N(C)C(=O)[C@H]([C@@H](C)CC)N(C)C(=O)C2(CCCC2)NC(=O)[C@@H]2CCCN2C(=O)[C@H](CCc2ccc(C(F)(F)F)c(Cl)c2)NC(=O)CN(C)C(=O)[C@H](Cc2ccc(C)cc2)N(C)C(=O)[C@@H]2CCN2C(=O)[C@H](C)N(C)C1=O [Compound 1793] (cyclo([Ac5c][NMeI][NMedβ3hAla][NMeL]I[NMeA][Aze][NMePhe(4-Me)][Sar][hPhe(3-Cl-4-CF3)]P))")
8.72
>>> measured_value("CC[C@H](C)[C@@H]1NC(=O)[C@H](CC(C)C)N(C)C(=O)C[C@@H](C(=O)N2CCCCC2)N(C)C(=O)[C@H](C(C)C)N(C)C(=O)C2(CCCC2)NC(=O)[C@@H]2CCCN2C(=O)[C@H](CCc2ccc(C(F)(F)F)c(F)c2)NC(=O)CN(C)C(=O)[C@H](CC2CCCCC2)N(C)C(=O)[C@@H]2CCN2C(=O)[C@H](C)N(C)C1=O [Compound 1040] ([NMeL]I[NMeA][Aze][NMeCha][Sar][hPhe(3-F,4-CF3)]P[Ac5c][NMeV][NMeD]-Piperidide; lactam N-11)")
7.85
>>> measured_value("CC[C@H](C)[C@@H]1NC(=O)[C@H](CC(C)C)N(C)C(=O)C[C@@H](C(=O)N2CCCCC2)N(C)C(=O)[C@H](C2CCCCC2)N(C)C(=O)C2(CCCC2)NC(=O)CN(CCOCCN)C(=O)[C@H](CCc2ccc(C(F)(F)F)c(Cl)c2)NC(=O)CN(C)C(=O)[C@H](CC2CCCCC2)N(C)C(=O)CN(C)C(=O)CN(C)C1=O [Compound 2185] ([NMeL]I[Sar][Sar][NMeCha][Sar][hPhe(3-Cl-4-CF3)][X138][Ac5c][NMeChg][NMeD]-Piperidide; lactam N-11)")
8.62
>>> measured_value("CC[C@H](C)[C@@H]1NC(=O)[C@H](C)N(C)C(=O)C[C@@H](C)NC(=O)[C@H](C2CCCC2)N(C)C(=O)C2(CCCC2)NC(=O)[C@@H]2CCCN2C(=O)[C@H](CCc2ccc(C(F)(F)F)c(Cl)c2)NC(=O)[C@@H](C)N(C)C(=O)[C@H](Cc2cccnc2)N(C)C(=O)[C@@H]2CCN2C(=O)[C@H](C)N(C)C1=O [Compound 1011] (cyclo([Ac5c][NMeGly(cPent)][d(β3hA)][NMeA]I[NMeA][Aze][NMe3Pal][dNMeA][hPhe(3-Cl-4-CF3)]P))")
7.42
